Origin of measurements: ChEMBL document CHEMBL3885861

organism: Rattus norvegicus; experiment: Open TG-GATES - Regimen: Daily Repeat; format: toxicity, organism-based, Sprague-Dawley; design: regimen Daily Repeat, gender Male, age 6 weeks; conditions: in vivo, po, 1000 mg/kg, 72 h, tissue Blood, route gavage, dose level High, time 3 day
Recorded Hb for the following compounds
Give just the numeric value; g/dL need not be written.

O=C(N[C@H](CO)[C@H](O)c1ccc([N+](=O)[O-])cc1)C(Cl)Cl; 13.3
CC(C)(S)[C@@H](N)C(=O)O; 13.2
O=C(O)c1cccnc1; 13.5

Now, please, on to the next compound.
Consider the compound CCN1CCCC1CNC(=O)c1cc(S(N)(=O)=O)ccc1OC (centres undefined) [SULPIRIDE] and give its measured Hb.
14.1

###

species on record: Rattus norvegicus; assay: Open TG-GATES - Regimen: Daily Repeat; format: toxicity, organism-based, Sprague-Dawley; parameters: regimen Daily Repeat, gender Male, age 6 weeks; conditions: in vivo, po, 0 mg/kg, 72 h, tissue Plasma, route gavage, dose level Control, time 3 day
With a cut-off of 100 mg/dL, any TG strictly below it is called Condition met; any TG meeting it or above is called Condition not met.

C[C@](N)(Cc1ccc(O)c(O)c1)C(=O)O; Condition met
CN1C(=O)OC(C)(C)C1=O; Condition not met
CC(=N)S [THIOACETAMIDE]; Condition not met
O=C(N[C@H](CO)[C@H](O)c1ccc([N+](=O)[O-])cc1)C(Cl)Cl; Condition not met
C[C@]12CCC(=O)C=C1CC[C@@H]1[C@@H]2CC[C@@]2(C)[C@H]1CC[C@]2(C)O; Condition met

Consider the compound CCN1CCCC1CNC(=O)c1cc(S(N)(=O)=O)ccc1OC (stereo unspecified) [SULPIRIDE] . Is its TG strictly less than 100 mg/dL?
Condition not met

Consider the compound CC(C)(S)[C@@H](N)C(=O)O . Is its TG strictly less than 100 mg/dL?
Condition not met

Consider the compound CCc1oc2ccccc2c1C(=O)c1cc(I)c(O)c(I)c1 . Is its TG strictly less than 100 mg/dL?
Condition not met

Consider the compound Oc1ncnc2[nH]ncc12 . Is its TG strictly less than 100 mg/dL?
Condition not met

Consider the compound CC(C)C(=O)Nc1ccc([N+](=O)[O-])c(C(F)(F)F)c1 [FLUTAMIDE] . Is its TG strictly less than 100 mg/dL?
Condition met

Consider the compound O=C(O)c1cccnc1 . Is its TG strictly less than 100 mg/dL?
Condition met

Consider the compound CCC(C)(C)C(=O)O[C@H]1C[C@@H](C)C=C2C=C[C@H](C)[C@H](CC[C@@H]3C[C@@H](O)CC(=O)O3)[C@H]21 . Is its TG strictly less than 100 mg/dL?
Condition met

###

species on record: Rattus norvegicus; experiment: Open TG-GATES - Regimen: Daily Repeat; type: toxicity, organism-based, Sprague-Dawley; design: regimen Daily Repeat, gender Male, age 6 weeks; conditions: in vivo, po, 1000 mg/kg, […], tissue Plasma, route gavage, dose level High, time 14 day
Recorded TC for the following compounds
Give just the numeric value; mg/dL need not be written.

Consider the compound CC(C)(S)[C@@H](N)C(=O)O [PENICILLAMINE] and give its measured TC.
81.6

Consider the compound O=C(O)c1cccnc1 [NIACIN] and give its measured TC.
67.2

Consider the compound CCN1CCCC1CNC(=O)c1cc(S(N)(=O)=O)ccc1OC (centres undefined) [SULPIRIDE] and give its measured TC.
80.8

Consider the compound O=C(N[C@H](CO)[C@H](O)c1ccc([N+](=O)[O-])cc1)C(Cl)Cl [CHLORAMPHENICOL] and give its measured TC.
71.4
